Hello, the source for this data is patent US20180319855A1, in case you need it.

Test: Thermostability: relative bioluminescence activity after 30 min incubation
Type: physicochemical
Conditions: 40° C. for 30 min; CLZ-f
Checkbox rule: Thermostability, luminescence activity relative to wt-aequorin lower than 1 = rule met; Thermostability, luminescence activity relative to wt-aequorin not lower than 1 = rule not met.

-- ask Consider the molecule N121D: apoaequorin mutant, asparagine 121 replaced by aspartic acid (SEQ ID NO:9) (protein, mutant aequorin) SKLTSDFDNPRWIGRHKHMFNFLDVNHNGKISLDEMVYKASDIVINNLGATPEQAKRHKDAVEAFFGGAGMKYGVETDWPAYIEGWKKLATDELEKYAKNEPTLIRIWGDALFDIVDKDQDGAITLDEWKAYTKAAGIIQSSEDCEETFRVCDIDESGQLDVDEMTRQHLGFWYTMDPACEKLYGGAVP . Is its Thermostability, luminescence activity relative to wt-aequorin strictly less than 1?
-- reply rule met

-- ask Consider the molecule Q159E: apoaequorin mutant, glutamine 159 replaced by glutamic acid (SEQ ID NO:8) (protein, mutant aequorin) SKLTSDFDNPRWIGRHKHMFNFLDVNHNGKISLDEMVYKASDIVINNLGATPEQAKRHKDAVEAFFGGAGMKYGVETDWPAYIEGWKKLATDELEKYAKNEPTLIRIWGDALFDIVDKDQNGAITLDEWKAYTKAAGIIQSSEDCEETFRVCDIDESGELDVDEMTRQHLGFWYTMDPACEKLYGGAVP . Is its Thermostability, luminescence activity relative to wt-aequorin strictly less than 1?
-- reply rule met

-- ask Consider the molecule QD + ND: apoaequorin double mutant Q159D + N121D (SEQ ID NO:13) (protein, mutant aequorin) SKLTSDFDNPRWIGRHKHMFNFLDVNHNGKISLDEMVYKASDIVINNLGATPEQAKRHKDAVEAFFGGAGMKYGVETDWPAYIEGWKKLATDELEKYAKNEPTLIRIWGDALFDIVDKDQDGAITLDEWKAYTKAAGIIQSSEDCEETFRVCDIDESGDLDVDEMTRQHLGFWYTMDPACEKLYGGAVP . Is its Thermostability, luminescence activity relative to wt-aequorin strictly less than 1?
-- reply rule met

-- ask Consider the molecule QD + AT: apoaequorin double mutant Q159D + A179T (SEQ ID NO:17) (protein, mutant aequorin) SKLTSDFDNPRWIGRHKHMFNFLDVNHNGKISLDEMVYKASDIVINNLGATPEQAKRHKDAVEAFFGGAGMKYGVETDWPAYIEGWKKLATDELEKYAKNEPTLIRIWGDALFDIVDKDQNGAITLDEWKAYTKAAGIIQSSEDCEETFRVCDIDESGDLDVDEMTRQHLGFWYTMDPTCEKLYGGAVP . Is its Thermostability, luminescence activity relative to wt-aequorin strictly less than 1?
-- reply rule not met
